# target: Adrenergic receptor alpha-1 (Rattus norvegicus, UniProt P15823+P23944+P43140)
# Sequence (P15823 whole entry): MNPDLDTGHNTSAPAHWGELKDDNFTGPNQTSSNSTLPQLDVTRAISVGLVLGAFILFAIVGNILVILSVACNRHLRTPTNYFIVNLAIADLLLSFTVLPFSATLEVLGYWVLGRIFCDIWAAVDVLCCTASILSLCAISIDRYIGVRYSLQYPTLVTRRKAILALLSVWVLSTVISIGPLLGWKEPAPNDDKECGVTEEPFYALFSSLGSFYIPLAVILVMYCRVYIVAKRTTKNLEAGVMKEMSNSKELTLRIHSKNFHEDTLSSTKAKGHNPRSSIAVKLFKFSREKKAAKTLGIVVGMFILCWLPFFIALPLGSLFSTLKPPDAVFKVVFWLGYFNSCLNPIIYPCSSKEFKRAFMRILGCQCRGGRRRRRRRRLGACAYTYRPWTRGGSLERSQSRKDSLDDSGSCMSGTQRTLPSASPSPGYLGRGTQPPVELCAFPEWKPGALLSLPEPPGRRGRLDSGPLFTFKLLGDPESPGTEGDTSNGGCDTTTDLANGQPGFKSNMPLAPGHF
# Sequence (P23944 whole entry): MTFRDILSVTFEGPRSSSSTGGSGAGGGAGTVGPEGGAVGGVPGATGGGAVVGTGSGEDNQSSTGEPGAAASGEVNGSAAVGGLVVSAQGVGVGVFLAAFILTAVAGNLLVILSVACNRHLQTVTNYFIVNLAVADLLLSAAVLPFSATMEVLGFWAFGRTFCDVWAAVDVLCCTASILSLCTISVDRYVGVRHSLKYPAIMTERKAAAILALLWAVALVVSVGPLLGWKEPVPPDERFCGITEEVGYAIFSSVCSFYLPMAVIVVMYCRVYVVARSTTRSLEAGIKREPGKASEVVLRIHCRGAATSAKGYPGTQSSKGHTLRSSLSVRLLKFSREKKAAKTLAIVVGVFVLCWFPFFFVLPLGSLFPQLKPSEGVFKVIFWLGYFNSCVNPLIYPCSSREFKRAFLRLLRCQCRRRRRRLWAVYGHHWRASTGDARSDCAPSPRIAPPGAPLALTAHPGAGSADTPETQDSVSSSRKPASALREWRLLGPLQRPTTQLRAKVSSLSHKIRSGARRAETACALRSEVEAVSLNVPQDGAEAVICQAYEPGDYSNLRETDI
# Sequence (P43140 whole entry): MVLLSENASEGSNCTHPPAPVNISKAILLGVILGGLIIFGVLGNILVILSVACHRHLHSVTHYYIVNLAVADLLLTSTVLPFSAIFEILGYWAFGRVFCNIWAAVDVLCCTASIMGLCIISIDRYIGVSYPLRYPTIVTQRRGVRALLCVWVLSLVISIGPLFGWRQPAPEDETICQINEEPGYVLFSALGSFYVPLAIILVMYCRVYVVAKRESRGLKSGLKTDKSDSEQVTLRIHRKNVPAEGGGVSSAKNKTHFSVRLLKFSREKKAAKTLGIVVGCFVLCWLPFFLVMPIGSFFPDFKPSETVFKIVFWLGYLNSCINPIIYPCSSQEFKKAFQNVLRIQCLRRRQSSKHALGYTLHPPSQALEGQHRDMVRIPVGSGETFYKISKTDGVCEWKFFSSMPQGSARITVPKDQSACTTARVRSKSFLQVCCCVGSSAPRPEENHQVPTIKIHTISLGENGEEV
# assay-procedure: Antagonist activity against alpha-1 adrenergic receptor of rat anococcygeus muscle.
# Assay type: functional
property: pA2

The compound identified as CS(=O)(=O)NCCN([C@@H]1CCN2CCc3ccccc3[C@@H]2C1)S(C)(=O)=O registered its pA2 at 5.32

The compound identified as Cc1ccc(S(=O)(=O)N(CCNS(C)(=O)=O)[C@@H]2CCN3CCc4ccccc4[C@@H]3C2)cc1 registered its pA2 at 5.8

The compound identified as CCCS(=O)(=O)N(CCNS(C)(=O)=O)[C@@H]1CCN2CCc3ccccc3[C@@H]2C1 registered its pA2 at 5.8

The compound identified as CS(=O)(=O)NCCN([C@@H]1CCN2CCc3ccccc3[C@@H]2C1)S(=O)(=O)c1ccc(F)cc1 registered its pA2 at 5.7

---

# target: Adrenergic receptor alpha-1 (Rattus norvegicus, UniProt P15823+P23944+P43140)
# assay-procedure: Antagonist activity against alpha-1 adrenergic receptor of rat anococcygeus muscle.
# Assay type: functional
property: pA2

The molecule identified as Cc1cccc(S(=O)(=O)N(CCNS(C)(=O)=O)[C@@H]2CCN3CCc4ccccc4[C@@H]3C2)c1 registered its pA2 at 6.4

The molecule identified as CCS(=O)(=O)NCCN([C@@H]1CCN2CCc3ccccc3[C@@H]2C1)S(=O)(=O)c1ccc(C)cc1 registered its pA2 at 6.6

The molecule identified as CN(CCN([C@@H]1CCN2CCc3ccccc3[C@@H]2C1)S(C)(=O)=O)S(C)(=O)=O registered its pA2 at 5.5

The molecule identified as CS(=O)(=O)NCCN([C@@H]1CCN2CCc3ccccc3[C@@H]2C1)S(=O)(=O)c1ccccc1 registered its pA2 at 6.16

---

# target: Adrenergic receptor alpha-2 (Rattus norvegicus, UniProt P22086+P19328+P22909)
# assay-procedure: Antagonism of rat alpha-2 adrenergic receptor from rat vas deferens
# Type: functional
property: pA2

The compound identified as O=S(=O)(CCl)NCCN([C@@H]1CCN2CCc3ccccc3[C@@H]2C1)S(=O)(=O)CCl registered its pA2 at 8

The compound identified as CCS(=O)(=O)NCCN([C@@H]1CCN2CCc3ccccc3[C@@H]2C1)S(=O)(=O)c1ccc(C)cc1 registered its pA2 at 7.62

The compound identified as CS(=O)(=O)NCCN([C@@H]1CCN2CCc3ccccc3[C@@H]2C1)S(C)(=O)=O registered its pA2 at 7.93

The compound identified as CCCS(=O)(=O)N(CCNS(=O)(=O)CC)[C@@H]1CCN2CCc3ccccc3[C@@H]2C1 registered its pA2 at 8.1

The compound identified as CC(C)(CN([C@@H]1CCN2CCc3ccccc3[C@@H]2C1)S(C)(=O)=O)NS(C)(=O)=O registered its pA2 at 6.14

The compound identified as CS(=O)(=O)NCCN([C@@H]1CCN2CCc3ccccc3[C@@H]2C1)S(=O)(=O)c1cccc([N+](=O)[O-])c1 registered its pA2 at 7.69

The compound identified as CCS(=O)(=O)N(CCNS(C)(=O)=O)[C@@H]1CCN2CCc3ccccc3[C@@H]2C1 registered its pA2 at 8.34

The compound identified as CCS(=O)(=O)NCCN([C@@H]1CCN2CCc3ccccc3[C@@H]2C1)S(=O)(=O)CC registered its pA2 at 8.27

---

# target: Adrenergic receptor alpha-1 (Rattus norvegicus, UniProt P15823+P23944+P43140)
# assay-procedure: Antagonist activity against alpha-1 adrenergic receptor of rat anococcygeus muscle.
# Format: functional
property: pA2

The compound identified as CCS(=O)(=O)N(CCNS(C)(=O)=O)[C@@H]1CCN2CCc3ccccc3[C@@H]2C1 registered its pA2 at 5.65

The compound identified as CCCS(=O)(=O)NCCN([C@@H]1CCN2CCc3ccccc3[C@@H]2C1)S(C)(=O)=O registered its pA2 at 5.7

The compound identified as CCS(=O)(=O)NCCN([C@@H]1CCN2CCc3ccccc3[C@@H]2C1)S(C)(=O)=O registered its pA2 at 5.65

The compound identified as COc1ccc(S(=O)(=O)N(CCNS(C)(=O)=O)[C@@H]2CCN3CCc4ccccc4[C@@H]3C2)cc1 registered its pA2 at 6.1

The compound identified as CS(=O)(=O)NCCCN([C@@H]1CCN2CCc3ccccc3[C@@H]2C1)S(C)(=O)=O registered its pA2 at 5.7

The compound identified as CCS(=O)(=O)NCCN([C@@H]1CCN2CCc3ccccc3[C@@H]2C1)S(=O)(=O)CC registered its pA2 at 5.54

The compound identified as CS(=O)(=O)NCCN([C@@H]1CCN2CCc3ccccc3[C@@H]2C1)S(=O)(=O)c1cccc([N+](=O)[O-])c1 registered its pA2 at 6.7

The compound identified as CS(=O)(=O)N(CCNS(=O)(=O)c1ccccc1)[C@@H]1CCN2CCc3ccccc3[C@@H]2C1 registered its pA2 at 5.9

---

# target: Adrenergic receptor alpha (Rattus norvegicus) (UniProt P15823+P23944+P43140+P22086+P19328+P22909)
# assay-procedure: Ratio of pA2 values at alpha-1 and alpha-2 adrenergic receptors.
# Type: protein assay
property: Ratio

The molecule identified as Cc1ccc(S(=O)(=O)N(CCNS(C)(=O)=O)[C@@H]2CCN3CCc4ccccc4[C@@H]3C2)cc1 registered its Ratio at 400

I = COc1ccc(S(=O)(=O)N(CCNS(C)(=O)=O)[C@@H]2CCN3CCc4ccccc4[C@@H]3C2)cc1
II = Cc1cccc(S(=O)(=O)N(CCNS(C)(=O)=O)[C@@H]2CCN3CCc4ccccc4[C@@H]3C2)c1
III = CCS(=O)(=O)NCCN([C@@H]1CCN2CCc3ccccc3[C@@H]2C1)S(=O)(=O)CC
Rank by Ratio (largest to smallest). Respond with an ordered listing of the labels, as requested.
III, I, II
(III: 540, I: 100, II: 40)
